These entries and their values trace back to patent US11291642B2.

Measured D × 10 (μm) accompanies every entry in the list below.
Assay: Particle size of dimethyl fumarate by Malvern laser diffraction
Format: physicochemical
Details: Table 1
Experimental: As use herein, the particle size is expressed in terms of volume diameter and the particle size distribution is expressed in terms of D50, D10, D90 and span. In certain embodiments, the particle size described herein are measured using a laser diffraction technique that correlates light scattering to particle volume on which effective length or effective diameter is calculated. The distribution is based on a measurement of thousands of particles. Particle samples can be in dry form or in slurry. […]
Structures can show the parent of a compound that is named as a salt.
REPORTED_PROPERTY: D × 10 (μm)

[[record]]
molecule = "COC(=O)/C=C/C(=O)OC [Batch 11P1310, dimethyl fumarate]"
value_reported = "9 μm"

[[record]]
molecule = "COC(=O)/C=C/C(=O)OC [2014-4281-A.9, dimethyl fumarate]"
value_reported = "26.8 μm"

[[record]]
molecule = "COC(=O)/C=C/C(=O)OC [Batch A14DS0977, dimethyl fumarate]"
value_reported = "51.5 μm"

[[record]]
molecule = "COC(=O)/C=C/C(=O)OC [Batch A14DS0978, dimethyl fumarate]"
value_reported = "44.1 μm"

[[record]]
molecule = "COC(=O)/C=C/C(=O)OC [Batch A14DS1097, dimethyl fumarate]"
value_reported = "33.1 μm"

[[record]]
molecule = "COC(=O)/C=C/C(=O)OC [2014-4281-A.8, dimethyl fumarate]"
value_reported = "27.2 μm"

[[record]]
molecule = "COC(=O)/C=C/C(=O)OC [2014-4281-A.4, dimethyl fumarate]"
value_reported = "31.9 μm"


----------
assay: Particle size of dimethyl fumarate by Malvern laser diffraction; type: physicochemical; details: Table 1
Where a name gives a salt, the structure may show the parent alone.
REPORTED_PROPERTY: D × 50 (μm)

[[record]]
compound = "COC(=O)/C=C/C(=O)OC [Batch A14DS1097, dimethyl fumarate]"
reported_property = "D × 50 (μm)"
value_reported = 87.8

[[record]]
compound = "COC(=O)/C=C/C(=O)OC [Batch A14DS0977, dimethyl fumarate]"
reported_property = "D × 50 (μm)"
value_reported = 127

[[record]]
compound = "COC(=O)/C=C/C(=O)OC [2014-4281-A.9, dimethyl fumarate]"
reported_property = "D × 50 (μm)"
value_reported = 88.2

[[record]]
compound = "COC(=O)/C=C/C(=O)OC [Batch 11P1310, dimethyl fumarate]"
reported_property = "D × 50 (μm)"
value_reported = 30

[[record]]
compound = "COC(=O)/C=C/C(=O)OC [Batch A14DS0978, dimethyl fumarate]"
reported_property = "D × 50 (μm)"
value_reported = 113

[[record]]
compound = "COC(=O)/C=C/C(=O)OC [2014-4281-A.4, dimethyl fumarate]"
reported_property = "D × 50 (μm)"
value_reported = 96

[[record]]
compound = "COC(=O)/C=C/C(=O)OC [2014-4281-A.8, dimethyl fumarate]"
reported_property = "D × 50 (μm)"
value_reported = 70.8


----------
test: Particle size of dimethyl fumarate by Malvern laser diffraction; format: physicochemical; conditions: Span=(D90−D10)/D50; Table 1
Structures can show the parent of a compound that is named as a salt.
REPORTED_PROPERTY: Span

[[record]]
compound = "COC(=O)/C=C/C(=O)OC [Batch 11P1310, dimethyl fumarate]"
value_reported = 2.05

[[record]]
compound = "COC(=O)/C=C/C(=O)OC [2014-4281-A.4, dimethyl fumarate]"
value_reported = 1.562

[[record]]
compound = "COC(=O)/C=C/C(=O)OC [Batch A14DS0978, dimethyl fumarate]"
value_reported = 1.593

[[record]]
compound = "COC(=O)/C=C/C(=O)OC [Batch A14DS0977, dimethyl fumarate]"
value_reported = 1.554

[[record]]
compound = "COC(=O)/C=C/C(=O)OC [Batch A14DS1097, dimethyl fumarate]"
value_reported = 1.772

[[record]]
compound = "COC(=O)/C=C/C(=O)OC [2014-4281-A.8, dimethyl fumarate]"
value_reported = 1.71

[[record]]
compound = "COC(=O)/C=C/C(=O)OC [2014-4281-A.9, dimethyl fumarate]"
value_reported = 1.58

